Reference for the values: patent US20100285146A1

system: C72 murine anti-DNA antibody; assay: Anti-peptide direct binding ELISA with C72; settings: direct binding ELISA; footnote: O.D. after one (1) hour
No end group written: not given here.
reported property: C72 Binding (O.D.)

Example sequences with recorded C72 Binding:
item sequence: KEGYKVELDLNITLEFETTSK [Peptide 5105]
measured number: 0.07

item sequence: KATPMLKMRTSFHGCIK [Peptide R37, laminin derived peptide, residues 2615-2631]
measured number: 1.8

item sequence: VQSDVNITLEFR [Peptide 5111]
measured number: 0.01

item sequence: AEGYAVALDLNITLEFATTSA [Peptide 5104]
measured number: 0.06

item sequence: KEGYKVRLDLNITLAFRTTSK [Peptide 5110]
measured number: 2.8

P. KQNCLSSRASFRGCVRNLRLSR [Peptide R30, laminin derived peptide, residues 3011-3032]
Q. KEGYKVELDLNITLEFRTTSK [Peptide 5106]
Ask: Parameter metric = C72 Binding. Return the lower-valued option from P and Q . Record your answer as the label of the chosen record.
Reply: P
(P: 0.75 O.D., Q: 1.9 O.D.)

a. RPVRHAQCRVCDGNSTNPRERH [Peptide R18, peptide from the N-terminal of mouse laminin alpha chain, residues 42-63, reference compound]
b. KAGYKVRLALNITLAFRTTSK [Peptide 5108]
Ask: When a and b are compared, which has the higher number for C72 Binding? Record your answer as the label of the chosen record.
Reply: b
(b: 2.75 O.D., a: 0.01 O.D.)

1. DGKWHTVKTEYIKRKAF [Peptide R28, laminin derived peptide, residues 2779-2795]
2. VRLDLNITLEFR [Peptide 5102]
Ask: When 1 and 2 are compared, which has the higher number for C72 Binding? Record your answer as the label of the chosen record.
Reply: 2

a. KEGYKVRLDLNITLEF [Peptide 5101]
b. LDLNITEFRTTSK [Peptide 5103]
c. KEGYKVRLALNITLEFRTTSK [Peptide 5109]
Ask: Give the ascending ranking of the items by reported C72 Binding. Output spec: labels arranged per the requested ranking.
Reply: b, a, c
(b: 0.03 O.D., a: 1.11 O.D., c: 2.72 O.D.)
